Where do the numbers come from? From PubChem BioAssay AID1159580.

experiment: chemical genetic growth profiling, strain panel (AID 1159580);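 further: tested at 20 µM; growth read once vehicle control cultures reached saturation at 30 °C; 1 = growth at the plate median or of vehicle wells; lower values mean less growth of the strain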; settings: S. cerevisiae deletion strains, growth OD, locus YLR370C, strain arc18, stronger effect = lower value
Among all 5,500 compounds or so, about 2,000 (36%) were called active. Inconclusive results (about 18%) are left out. The list shows a part of the results.
Quick list: normalized growth per entry.
Measure: normalized growth

>>> obs_value("CCN(CC)CCOc1ccc(/C(=C(\\Cl)c2ccccc2)c2ccccc2)cc1")
0.0727
>>> obs_value("CN(C)CCOc1ccc(/C(=C(/CCCl)c2ccccc2)c2ccccc2)cc1")
0.0617
>>> obs_value("C/C=C/c1ccc2c(c1)OCO2")
1.02
>>> obs_value("CCN(CC)CCOc1ccc2c(c1)C(=O)c1cc(OCCN(CC)CC)ccc1-2")
0.987
>>> obs_value("COc1cc(C(=O)NCc2ccc(OCCN(C)C)cc2)cc(OC)c1OC")
0.99
